Measured pH after 6 months of individual entries
procedure.text: Stabilization of redox properties of water solution, 6 months storage at 50° C after autoclaving
Assay type: physicochemical
experimental.parameters: 10% of weight, autoclaved
measured.metric: pH after 6 months

> print(dat)
                      molecule  obs.value
1            N[C@@H](CO)C(=O)O        7.6
2  N[C@@H](Cc1ccc(O)cc1)C(=O)O        7.2
3     C[C@@H](O)[C@H](N)C(=O)O        7.4
4        NC(=O)C[C@H](N)C(=O)O        7.0
5     NCC(N)=O [Glycine amide]        7.0
6                     NCC(=O)O        7.7
7            N[C@@H](CS)C(=O)O        6.9
8       NC(=O)CC[C@H](N)C(=O)O        7.2

====

procedure.text: Stabilization of redox properties of water solution, 6 months storage at 50° C after autoclaving
Assay type: physicochemical
experimental.parameters: 0.5% of weight, autoclaved
measured.metric: pH after 6 months

> print(dat)
                                 compound  obs.value
1              N[C@@H](CO)C(=O)O [Serine]        7.8
2                      NCC(=O)O [Glycine]        7.9
3            N[C@@H](CS)C(=O)O [Cysteine]        7.8
4      NC(=O)C[C@H](N)C(=O)O [Asparagine]        6.9
5    C[C@@H](O)[C@H](N)C(=O)O [Threonine]        7.5
6      NC(=O)CC[C@H](N)C(=O)O [Glutamine]        7.2
7  N[C@@H](Cc1ccc(O)cc1)C(=O)O [Tyrosine]        7.4
8                NCC(N)=O [Glycine amide]        7.4

====

procedure.text: Stabilization of redox properties of water solution, 6 months storage at 50° C after autoclaving
Format: physicochemical
experimental.parameters: 0.005% of weight, autoclaved
Reported pH after 6 months values for the following compounds.
measured.metric: pH after 6 months

> print(dat)
                      compound    measured.metric  obs.value
1                     NCC(=O)O  pH after 6 months        7.2
2            N[C@@H](CS)C(=O)O  pH after 6 months        7.3
3     C[C@@H](O)[C@H](N)C(=O)O  pH after 6 months        7.1
4     NCC(N)=O [Glycine amide]  pH after 6 months        6.5
5        NC(=O)C[C@H](N)C(=O)O  pH after 6 months        5.9
6  N[C@@H](Cc1ccc(O)cc1)C(=O)O  pH after 6 months        7.2
7       NC(=O)CC[C@H](N)C(=O)O  pH after 6 months        5.8
8            N[C@@H](CO)C(=O)O  pH after 6 months        7.1
